Recorded EC50 by entry
Target under test: TRPML3 (Homo sapiens)
Construct: expressed in transfected cells
Sequence (Q8TDD5 whole entry): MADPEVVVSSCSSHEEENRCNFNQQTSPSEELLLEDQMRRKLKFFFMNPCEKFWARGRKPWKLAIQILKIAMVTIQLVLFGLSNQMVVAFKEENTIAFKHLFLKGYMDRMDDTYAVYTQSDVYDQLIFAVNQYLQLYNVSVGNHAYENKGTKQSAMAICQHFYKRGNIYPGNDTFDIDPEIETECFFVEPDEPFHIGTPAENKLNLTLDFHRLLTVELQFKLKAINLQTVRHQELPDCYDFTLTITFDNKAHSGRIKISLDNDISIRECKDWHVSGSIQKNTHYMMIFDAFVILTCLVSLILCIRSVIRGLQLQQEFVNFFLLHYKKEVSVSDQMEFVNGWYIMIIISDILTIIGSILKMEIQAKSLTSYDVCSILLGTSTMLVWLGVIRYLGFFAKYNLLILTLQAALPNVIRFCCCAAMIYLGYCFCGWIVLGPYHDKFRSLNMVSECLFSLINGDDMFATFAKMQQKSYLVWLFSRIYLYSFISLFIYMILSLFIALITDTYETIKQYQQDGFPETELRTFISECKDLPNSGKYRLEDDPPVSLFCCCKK
Assay notes: Fluorescent TRPML3 assay (as for TRPML1)
Format: cell-based
Particulars: Table 3, compounds 201-283
Procedure: HEK-293 Trex cells were stably transfected with a construct consisting of the human coding sequence for TRPML1 cloned into the tet-inducible plasmid pCDNA5 T/O. Mutations were introduced into the TRPML1 sequence to facilitate expression on the cell surface (Silvia Vergarajauregui, Rosa Puertollano Traffic. 2006 March; 7 (3): 337-353). […] The Trypsin-EDTA is diluted with growth media, and cells are counted. […] EC50 values were calculated using a non-linear regression of Prism. […]

>  <Compound>
COC(C)(C)C(=O)N1C[C@H](C)N(c2ncnc3c2c(C2CC2)cn3-c2cc(C#N)ccn2)C[C@H]1C

>  <EC50>
< 100 nM

$$$$
>  <Compound>
[2H]C([2H])([2H])[C@@H]1CN(c2ncnc3c2c(-c2ccccc2F)cn3-c2cc(C#N)ccn2)[C@@H](C)CN1C(=O)C(C)C (single isomer, unassigned)

>  <EC50>
100 to 500 nM

$$$$
>  <Compound>
C[C@@H]1CN(c2ncnc3c2c(C2CCC2)cn3-c2cccc(C(F)(F)F)c2)[C@@H](C)CN1C(=O)C(C)(C)C(F)(F)F

>  <EC50>
< 100 nM

$$$$
